Target: T1, α2-antiplasmin, P08697
T1 chain: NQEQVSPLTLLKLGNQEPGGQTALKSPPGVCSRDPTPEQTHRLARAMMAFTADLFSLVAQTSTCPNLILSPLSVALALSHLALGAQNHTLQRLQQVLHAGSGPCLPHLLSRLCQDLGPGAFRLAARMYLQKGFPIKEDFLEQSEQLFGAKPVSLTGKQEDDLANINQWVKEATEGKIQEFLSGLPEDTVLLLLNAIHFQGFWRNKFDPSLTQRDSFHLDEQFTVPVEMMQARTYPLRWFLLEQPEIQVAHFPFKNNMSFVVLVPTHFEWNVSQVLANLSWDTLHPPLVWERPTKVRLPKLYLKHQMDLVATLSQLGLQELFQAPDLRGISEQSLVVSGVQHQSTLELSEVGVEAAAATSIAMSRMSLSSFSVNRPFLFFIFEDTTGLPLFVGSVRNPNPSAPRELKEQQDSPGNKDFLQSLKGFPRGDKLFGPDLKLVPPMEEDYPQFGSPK
Quick reference for In vitro Half-life (of inactivation by α2-antiplasmin) among some proteins

Completed entries (count: 2):
{"columns": ["protein", "value-observed"],
 "data": [
  ["Wild-type Micro-plasmin (SEQ ID NO. 2) (protein) APSFDCGKPQVEPKKCPGRVVGGCVAHPHSWPWQVSLRTRFGMHFCGGTLISPEWVLTAAHCLEKSPRPSSYKVILGAHQEVNLEPHVQEIEVSRLFLEPTRKDIALLKLSSPAVITDKVIPACLPSPNYVVADRTECFITGWGETQGTFGAGLLKEAQLPVIENKVCNRYEFLNGRVQSTELCAGHLAGGTDSCQGDSGGPLVCFEKDKYILQGVTSWGLGCARPNKPGVYVRVSRFVTWIEGVMRNN", ">5 min"],
  ["Bi-PEGylated Micro-plasmin variant (20 kDa-20 kDa PEG) V82C-H87C Catalytic Domain (SEQ ID NO. 12) (protein) APSFDCGKPQVEPKKCPGRVVGGCVAHPHSWPWQVSLRTRFGMHFCGGTLISPEWVLTAAHCLEKSPRPSSYKVILGAHQECNLEPCVQEIEVSRLFLEPTRKDIALLKLSSPAVITDKVIPACLPSPNYVVADRTECFITGWGETQGTFGAGLLKEAQLPVIENKVCNRYEFLNGRVQSTELCAGHLAGGTDSCQGDSGGPLVCFEKDKYILQGVTSWGLGCARPNKPGVYVRVSRFVTWIEGVMRNN", ">10 min"]
]}

Could you now look at the following protein, please?
## Input So what does the record say about In vitro Half-life (of inactivation by α2-antiplasmin) for Mono-PEGylated Micro-plasmin variant (40 kDa PEG) V82C Catalytic Domain (SEQ ID NO. 4) (protein) APSFDCGKPQVEPKKCPGRVVGGCVAHPHSWPWQVSLRTRFGMHFCGGTLISPEWVLTAAHCLEKSPRPSSYKVILGAHQECNLEPHVQEIEVSRLFLEPTRKDIALLKLSSPAVITDKVIPACLPSPNYVVADRTECFITGWGETQGTFGAGLLKEAQLPVIENKVCNRYEFLNGRVQSTELCAGHLAGGTDSCQGDSGGPLVCFEKDKYILQGVTSWGLGCARPNKPGVYVRVSRFVTWIEGVMRNN ?
## Output >7 min
